experiment: Lipophilic-hydrophilic balance, Rm of the compound by partition chromatography; format: physicochemical

CPD_SMILES	Rm
C[n+]1ccc(Nc2ccc(C(=O)Nc3ccc(Nc4cc[n+](C)c5ccccc45)cc3N)cc2)cc1.[Br-].[Br-]	0.35
CC[n+]1cccc(NC(=O)c2ccc(NC(=O)c3ccc(NC(=O)c4ccc(C(=O)Nc5ccc[n+](CC)c5)cc4)cc3)cc2)c1.Cc1ccc(S(=O)(=O)[O-])cc1.Cc1ccc(S(=O)(=O)[O-])cc1	-0.44
Cc1c[n+](C)c2ccccc2c1Nc1ccc(C(=O)Nc2ccc(Nc3cc[n+](C)cc3)cc2)cc1.[Br-].[Br-]	0.6
C/C(=N\NC(=N)N)c1ccc(NC(=O)c2ccc(C(=O)Nc3ccc(C(=O)Nc4ccc[n+](C)c4)cc3)cc2)cc1.Cc1ccc(S(=O)(=O)O)cc1.Cc1ccc(S(=O)(=O)[O-])cc1	-0.53
CC[n+]1cccc(NC(=O)c2ccc(NC(=O)c3ccc(C(=O)Nc4ccc(C(=O)Nc5ccc[n+](CC)c5)c(N)c4)cc3)cc2N)c1.Cc1ccc(S(=O)(=O)[O-])cc1.Cc1ccc(S(=O)(=O)[O-])cc1	-0.65
C[n+]1cccc2cc(NC(=O)COc3ccc(C(=O)Nc4ccc5c(ccc[n+]5C)c4)cc3)ccc21.Cc1ccc(S(=O)(=O)[O-])cc1.Cc1ccc(S(=O)(=O)[O-])cc1	-0.3
C/C(=N\NC(=N)N)c1ccc(NC(=O)c2ccc(Nc3cc[n+](C)c4cc(N)ccc34)cc2)cc1.Cc1ccc(S(=O)(=O)O)cc1.Cc1ccc(S(=O)(=O)[O-])cc1	-0.36
CC(=NNC(=N)N)c1ccc(NC(=O)c2ccc(C(=O)Nc3ccc(Nc4cc[n+](C)cc4)cc3)cc2)cc1.Cc1ccc(S(=O)(=O)O)cc1.Cc1ccc(S(=O)(=O)[O-])cc1	-0.15
C[n+]1cccc(NC(=O)c2ccc(NC(=O)c3ccc(C(=O)Nc4ccc(NC(=N)N)cc4)cc3)cc2)c1.I.[I-]	-0.12
Cc1cc(Nc2ccc(NC(=O)c3ccc(C(=O)Nc4ccc(Nc5cc(C)[n+](C)c(N)n5)cc4)cc3)cc2)nc(N)[n+]1C.Cc1ccc(S(=O)(=O)[O-])cc1.Cc1ccc(S(=O)(=O)[O-])cc1	-0.71
C[n+]1cccc(NC(=O)c2ccc(NC(=O)c3ccc(C(=O)Nc4ccc(Nc5cc[n+](C)c6ccc(N)cc56)cc4)cc3)cc2)c1.Cc1ccc(S(=O)(=O)[O-])cc1.Cc1ccc(S(=O)(=O)[O-])cc1	-0.47

---

test system: L1210; assay: Antitumor activity against mouse L1210 cells […] in ip dosed C3H X DBA2 F1 hybrid mouse on day 0 and dosed once daily on days 1 to 5 assessed as increase in life span relative to control; format: functional
// reported log10 of D40 per item
OUTCOME_MEASURE: log10 of D40 (log10 of the value in mg/kg)

CPD_SMILES	OBS_VALUE
C[n+]1cccc(NC(=O)c2ccc(NC(=O)c3ccc(C(=O)Nc4ccc(C(=O)Nc5ccc[n+](C)c5)cc4)c(Cl)c3)cc2)c1.Cc1ccc(S(=O)(=O)[O-])cc1.Cc1ccc(S(=O)(=O)[O-])cc1	0.75
COc1cc(C(=O)Nc2ccc[n+](C)c2)ccc1NC(=O)c1ccc(C(=O)Nc2ccc(C(=O)Nc3ccc[n+](C)c3)cc2OC)cc1.Cc1ccc(S(=O)(=O)[O-])cc1.Cc1ccc(S(=O)(=O)[O-])cc1	1.11
C[n+]1cccc2cc(NC(=O)c3ccc(NC(=O)c4ccc(C(=O)Nc5ccc6c(ccc[n+]6C)c5)cc4)cc3)ccc21.Cc1ccc(S(=O)(=O)[O-])cc1.Cc1ccc(S(=O)(=O)[O-])cc1	1.59
C(=C\c1ccc(-[n+]2ccccc2)cc1)/c1ccc(/C=C/c2ccc(-[n+]3ccccc3)cc2)cc1.Cc1ccc(S(=O)(=O)[O-])cc1.Cc1ccc(S(=O)(=O)[O-])cc1	0.20
C[n+]1ccc(Nc2ccc(C(=O)Nc3ccc(Nc4c5ccccc5[n+](C)c5cc(N)ccc45)cc3)cc2)cc1.[Cl-].[Cl-]	0.30
CC[n+]1cccc(-c2ccc(NC(=O)/C=C/c3ccc(C(=O)Nc4ccc(-c5ccc(-c6ccc(-c7ccc[n+](CC)c7)cc6)cc5)cc4)cc3)cc2)c1.Cc1ccc(S(=O)(=O)[O-])cc1.Cc1ccc(S(=O)(=O)[O-])cc1	0.72
CC[n+]1ccc(Nc2ccc(NC(=O)c3ccc(Nc4cc[n+](CC)c5ccccc45)cc3)cc2)cc1.[Br-].[Br-]	0.45
CC[n+]1cccc2ccc(NC(=O)c3ccc(-c4ccc(-c5ccc(-c6ccc(C(=O)Nc7ccc8ccc[n+](CC)c8c7)cc6)cc5)cc4)cc3)cc21.Cc1ccc(S(=O)(=O)[O-])cc1.Cc1ccc(S(=O)(=O)[O-])cc1	1.31
